Recorded efflux ratio by entry
test protocol: Efflux ratio of apparent permeability from basolateral to apical over apical to basolateral side in human Caco2 cells
Format: ADME, cell-based
cond: Caco-2
metric name: efflux ratio

smiles=C[C@@H]1NC(=O)[C@H](C)NC(=O)[C@@H](C)N(C)C(=O)[C@H](C)N(C)C(=O)[C@H](C)NC(=O)[C@H](C)NC1=O assay_value=2.05
smiles=C[C@@H]1NC(=O)[C@H](C)N(C)C(=O)[C@H](C)N(C)C(=O)[C@H](C)NC(=O)[C@H](C)N(C)C(=O)[C@@H](C)N(C)C1=O assay_value=1.97
smiles=C[C@@H]1NC(=O)[C@H](C)N(C)C(=O)[C@H](C)N(C)C(=O)[C@H](C)NC(=O)[C@@H](C)N(C)C(=O)[C@H](C)N(C)C1=O assay_value=0.08
smiles=C[C@@H]1NC(=O)[C@H](C)NC(=O)[C@@H](C)N(C)C(=O)[C@H](C)NC(=O)[C@H](C)N(C)C(=O)[C@H](C)NC1=O assay_value=1.93

###

test protocol: Oral bioavailability in rat at 10 mg/kg
Type: ADME, organism-based
cond: in vivo
Square brackets hold non-standard residues; d marks the D form. Peptide text beside a SMILES is read from it. dNMeW = CN[C@H](Cc1c[nH]c2ccccc12)C(=O)O; NMeF = CN[C@@H](Cc1ccccc1)C(=O)O; NMeK = CN[C@@H](CCCCN)C(=O)O
metric name: bioavailability (%)

compound="C[C@@H](O)[C@@H]1NC(=O)[C@H](CCCCN)N(C)C(=O)[C@@H](Cc2c[nH]c3ccccc23)N(C)C(=O)[C@H](Cc2ccccc2)NC(=O)[C@@H]2CCCN2C(=O)[C@H](Cc2ccccc2)N(C)C1=O (cyclo(F[dNMeW][NMeK]T[NMeF]P))" unit_descriptor=% assay_value=10

Attribution: ChEMBL document CHEMBL4219041
